Target entity: KRAS(G12D) (Homo sapiens, UniProt P01116, G12D)
Construct: introduced immediately downstream of the initiating Methionine codon of the endogenous KRAS locus; host or cells: GP5d-HiBit-KRAS(G12D), a CRISPR knock-in at the endogenous locus
Sequence (P01116 1-188 isoform P01116-2 G12D): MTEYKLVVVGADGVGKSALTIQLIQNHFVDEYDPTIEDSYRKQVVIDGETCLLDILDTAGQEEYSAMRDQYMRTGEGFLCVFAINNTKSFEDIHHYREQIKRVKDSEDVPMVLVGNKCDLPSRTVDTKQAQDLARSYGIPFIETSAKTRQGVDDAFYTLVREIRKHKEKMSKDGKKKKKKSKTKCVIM
Assay remarks: HiBit degradation assay in GP5d-HiBit-KRAS(G12D) cells (18 h; DC50, Dmax)
Type: cell-based
Measured property: Dmax 18 h (% Ctrl)

{"columns": ["Compound", "Dmax 18 h (% Ctrl)"],
 "data": [
  ["Cc1ncsc1-c1ccc([C@@H](NC(=O)[C@@H]2C[C@@H](O)CN2C(=O)[C@@H](C(C)C)n2cc(OCCCCN3CCCN(c4nccc(-c5noc([C@@]6(C)CCCc7sc(N)c(C#N)c76)n5)n4)[C@@H](C)C3)nn2)[C@H](O)C(C)C)cc1 (single isomer, unassigned) [I-44]", 88],
  ["Cc1ncsc1-c1ccc([C@@H](NC(=O)[C@@H]2C[C@@H](O)CN2C(=O)[C@H](C(C)C)n2cc(OCCCCN3CCCN(c4nccc(-c5noc([C@@]6(C)CCCc7sc(N)c(C#N)c76)n5)n4)[C@@H](C)C3)nn2)[C@H](O)C(C)C)cc1 (single isomer, unassigned) [I-45]", 93],
  ["CC(C)C(C(=O)N1C[C@H](O)C[C@H]1C(=O)NCc1ccc(-c2scnc2CO)cc1)c1cc(OCCCCN2CCCN(c3nccc(-c4noc([C@@]5(C)CCCc6sc(N)c(C#N)c65)n4)n3)[C@@H](C)C2)no1 (some centres unmarked) [I-9]", 92],
  ["Cc1ncsc1-c1ccc(CNC(=O)[C@@H]2C[C@@H](O)CN2C(=O)C(c2cc(OCCCCN3CCCN(c4nccc(-c5cc([C@@]6(C)CCCc7sc(N)c(C#N)c76)sn5)n4)[C@@H](C)C3)no2)C(C)C)cc1 (some centres unmarked) [I-12]", 86],
  ["Cc1cc(CNC(=O)[C@@H]2C[C@@H](O)CN2C(=O)C(c2cc(OCCCCN3CCCN(c4nccc(-c5noc([C@@]6(C)CCCc7sc(N)c(C#N)c76)n5)n4)[C@@H](C)C3)no2)C(C)C)ccc1-c1scnc1C (some centres unmarked) [I-10]", 91],
  ["Cc1ncsc1-c1ccc(CNC(=O)[C@@H]2C[C@@H](O)CN2C(=O)[C@@H](NC(=O)CCCCCN2CCCN(c3nccc(-c4noc([C@@]5(C)CCCc6sc(N)c(C#N)c65)n4)n3)[C@@H](C)C2)C(C)(C)C)cc1 [I-47]", 94],
  ["CC(C)c1ccc(CNC(=O)[C@@H]2C[C@@H](O)CN2C(=O)C(c2cc(OCCCCN3CCCN(c4nccc(-c5noc([C@@]6(C)CCCc7sc(N)c(C#N)c76)n5)n4)[C@@H](C)C3)no2)C(C)C)cc1 (some centres unmarked) [I-23]", 82],
  ["Cc1ncsc1-c1ccc(CNC(=O)[C@@H]2C[C@@H](O)CN2C(=O)C(c2cc(OCCCCN3CCCN(c4nccc(-c5cc([C@@]6(C)CCCc7sc(N)c(C#N)c76)on5)n4)[C@@H](C)C3)no2)C(C)C)cc1 (some centres unmarked) [I-4]", 94],
  ["Cc1ncsc1-c1ccc(CNC(=O)[C@@H]2C[C@@H](O)CN2C(=O)[C@H](c2cc(OCCCN3CCCN(c4nccc(-c5noc([C@@]6(C)CCCc7sc(N)c(C#N)c76)n5)n4)[C@@H](C)C3)no2)C(C)C)cc1 (single isomer, unassigned) [I-24]", 81],
  ["Cc1ncsc1-c1ccc(CNC(=O)[C@@H]2C[C@@H](O)CN2C(=O)C(c2cc(OCCCCN3CCCN(c4nccc(-c5noc([C@@]6(C)CCCc7sc(N)c(C#N)c76)n5)n4)[C@@H](C)C3)no2)C(C)C)cc1 (some centres unmarked) [I-3]", 91],
  ["CC(C)C(C(=O)N1C[C@H](O)C[C@H]1C(=O)NCc1ccc(-n2ccnc2)cc1)c1cc(OCCCCN2CCCN(c3nccc(-c4noc([C@@]5(C)CCCc6sc(N)c(C#N)c65)n4)n3)[C@@H](C)C2)no1 (some centres unmarked) [I-19]", 93],
  ["Cc1ncsc1-c1ccc(CNC(=O)[C@@H]2C[C@@H](O)CN2C(=O)C(c2cc(OCCCCCCN3CCCN(c4nccc(-c5noc([C@@]6(C)CCCc7sc(N)c(C#N)c76)n5)n4)[C@@H](C)C3)no2)C(C)C)cc1 (some centres unmarked) [I-8]", 86],
  ["Cc1ncsc1-c1ccc(CNC(=O)[C@@H]2C[C@@H](O)CN2C(=O)C(c2cc(OCCCN3CCCN(c4nccc(-c5noc([C@@]6(C)CCCc7sc(N)c(C#N)c76)n5)n4)[C@@H](C)C3)no2)C(C)C)cc1 (some centres unmarked) [I-1]", 94],
  ["Cc1ncsc1-c1ccc(CNC(=O)[C@@H]2C[C@@H](O)CN2C(=O)[C@@H](c2cc(OCCCCN3CCCN(c4nccc(-c5noc([C@@]6(C)CCCc7sc(N)c(C#N)c76)n5)n4)[C@@H](C)C3)no2)C(C)C)cc1 (single isomer, unassigned) [I-27]", 93],
  ["Cc1ncsc1-c1ccc([C@H](CCOP(=O)(O)O)NC(=O)[C@@H]2C[C@@H](O)CN2C(=O)[C@H](C(C)C)n2cc(OCCCCN3CCCN(c4nccc(-c5noc([C@@]6(C)CCCc7sc(N)c(C#N)c76)n5)n4)[C@@H](C)C3)nn2)cc1 [I-39]", 87],
  ["Cc1ncsc1-c1ccc(CNC(=O)[C@@H]2C[C@@H](O)CN2C(=O)C(c2cc(OCCCCN3CCCN(c4nccc(-c5noc([C@@]6(C)CCCc7sc(N)c(C#N)c76)n5)n4)[C@@H](C)C3)no2)C(C)C)cc1F (some centres unmarked) [I-5]", 92],
  ["Cc1ncsc1-c1ccc(CNC(=O)[C@@H]2C[C@@H](O)CN2C(=O)[C@@H](NC(=O)COCCCN2CCCN(c3nccc(-c4noc([C@@]5(C)CCCc6sc(N)c(C#N)c65)n4)n3)[C@@H](C)C2)C(C)(C)C)cc1 [I-48]", 85]
]}
